Consider the following compounds; for each one, report its log10(TGI).
# Test system: CCRF-CEM leukemia
# ASSAY DETAILS: NCI tumour cell line growth inhibition, 48 h
Scale type: logarithmic (base 10). Underlying TGI unit: µM.

Solved cases below.
COMPOUND	TESTED TARGET	log10(TGI)
Oc1[nH]c2ccccc2c1N=Nc1ccccn1	CCRF-CEM leukemia	1.77
COc1ccc2c(c1)C(=O)c1c-2n(CCCN=[N+]=[N-])c(=O)c2cc(OC)c(OC)cc12	CCRF-CEM leukemia	1.21
C[Si](C)(OCCS(=O)(=O)O)C1(Cc2cccc3ccccc23)S(=O)(=O)OCCOS1(=O)=O	CCRF-CEM leukemia	1.66
CC(C)/C(Cl)=N\OC(=O)Nc1ccccc1F	CCRF-CEM leukemia	0.54
[Cl][Hg][Cl]	CCRF-CEM leukemia	0.87

# batch: return log10(TGI) for each of the 3 compounds below
1. CN(C)CC(C)(C)C(=O)/C=C/c1ccc(/C=C/C(=O)C(C)(C)CN(C)C)cc1
2. CN(C)CCCOc1ccc(-c2ccc3ncc4c(c3c2)n(C2CCOCC2)c(=O)n4C)cn1
3. CC(C)CC(NC(=O)c1cccc(O)c1O)C(=O)NCc1cc(CNC(=O)C(CC(C)C)NC(=O)c2cccc(O)c2O)cc(CNC(=O)C(CC(C)C)NC(=O)c2cccc(O)c2O)c1 (stereo unspecified)

Reply:
1: 0.58; 2: 1.36; 3: 1.73

Ask: What log10(TGI) value was documented for this compound, COc1cc(-c2cc3ncccc3c3nc(N)c4cccnc4c23)cc(OC)c1OC ?
Reply: 1.48
